selectivity ratio values for the compounds below.
# Experimental protocol: Selectivity index, ratio of CC50 for mock-infected human MT4 cells to EC50 for HIV1 RES056 infected in human MT4 cells
# Type: toxicity, cell-based
# Condition set: MT4 cells (mock-infected and HIV1 RES056 infected), read-out: Ratio CC50/EC50
Measured attribute: selectivity ratio

Smiles record: Cc1cc(/C=C/C#N)cc(C)c1Oc1nc(Nc2ccc(C#N)cc2)nc2c1CCCC2
Value relation sign: =
Meas value: 105
--
Smiles record: Cc1cc(C#N)cc(C)c1Oc1nc(Nc2ccc(C#N)cn2)nc2c1ccn2COCC[Si](C)(C)C
Value relation sign: <
Meas value: 1
--
Smiles record: Cc1cc(C#N)cc(C)c1Oc1nc(Nc2ccc(C#N)cc2)nc2c1ccn2CC(=O)N1CCOCC1
Value relation sign: =
Meas value: 3
--
Smiles record: O=C1Nc2ccc(Cl)cc2[C@@](C#CC2CC2)(C(F)(F)F)O1
Value relation sign: >
Meas value: 44
--
Smiles record: Cc1cc(C#N)cc(C)c1Oc1nc(Nc2ccc(C#N)nc2)nn2cccc12
Value relation sign: =
Meas value: 57
